Data origin, for the record: patent US20200181255A1

# target.or.test.system: T1, recombinant human IL-23 (human, UniProt Q9NPF7 20-189; P29460 23-328)
# T1 sequence 1: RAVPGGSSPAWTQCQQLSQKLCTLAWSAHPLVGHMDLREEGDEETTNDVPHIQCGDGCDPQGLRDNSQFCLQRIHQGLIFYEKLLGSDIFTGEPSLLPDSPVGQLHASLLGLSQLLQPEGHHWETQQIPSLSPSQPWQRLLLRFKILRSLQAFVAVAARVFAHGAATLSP
# T1 sequence 2: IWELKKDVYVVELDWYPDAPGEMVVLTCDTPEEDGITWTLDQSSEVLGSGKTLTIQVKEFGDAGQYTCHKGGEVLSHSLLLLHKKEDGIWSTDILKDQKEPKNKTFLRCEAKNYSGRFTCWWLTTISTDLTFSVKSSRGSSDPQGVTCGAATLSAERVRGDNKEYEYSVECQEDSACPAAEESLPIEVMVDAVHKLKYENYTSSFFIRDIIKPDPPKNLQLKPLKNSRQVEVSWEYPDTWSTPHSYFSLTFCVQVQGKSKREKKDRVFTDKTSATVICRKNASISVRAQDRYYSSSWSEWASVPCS
# protocol.description: cell-based or functional assay
observation.type: IC50 (pM), NK cell assay (IFNγ)
Express it in pM; write the number only.

GET /values?readout=IC50 (pM), NK cell assay (IFNγ)&item= Antibody K (antibody, V domains shown) VH: EVQLVESGGGLVQPGGSLRLSCVVSGFTFSSFSMNWVRQAPGKGLEWVSYISSRSSTIYYADSVKGRFTISRDNAKNSLYLQMNSLRDEDTAVYYCARRIAAAGPWGYYYAMDVWGQGTTVTVSS VL: QPELTQPPSASASLGASVTLTCTLSSGYSDYKVDWYQLRPGKGPRFVMRVGTGGTVGSKGEGIPDRFSVLGSGLNRSLTIKNIQEEDESDYHCGADHGSGSNFVYVFGTGTKVTVL
7
